Can you tell me − ΔTm for the items I'm about to list?
test: Circular dichroism melting temperature (Tm), CD signal at 222 nm versus temperature; assay type: physicochemical; set-up: key: Tm difference in °C from reference 3M-GGBP; settings: decrease of Tm versus reference protein 3M-GGBP; CD, PBS
Give bare numbers.

>  <Molecule>
Modified protein 12: 3M-GGBP (SEQ ID NO:3) with substitutions N283D, W284L (protein) ADTRIGVTIYKYDDNFMSVVRKAIEQDAKAAPDVQLLMNDSQNDQSKQNDQIDVLLAKGVKALAINLVDPAAAGTVIEKARGQNVPVVFFNKEPSRKALDSYDKAYYVGTDSKESGIIQGDLIAKHWAANQGWDLNKDGQIQFVLLKGCPGHPDAEARTTYVIKELNDKGIKTEQLQLDTAMWDTAQAKDKMDAWLSGPNANKIEVVIANNDRMAMGAVEALKAHNKSSIPVFGVDASPEALALVKSGALAGTVLNDANNQAKATFDLAKNLADGKGAADGTDLKIDNKVVRVPYVGVDKDNLAEFSKK

>  <Observation type>
− ΔTm

>  <Measured result>
3.7

$$$$

# batch size: 4; output − ΔTm per entry
1. Modified protein 6: 3M-GGBP (SEQ ID NO:3) with substitutions Q175I, Q177E (protein) ADTRIGVTIYKYDDNFMSVVRKAIEQDAKAAPDVQLLMNDSQNDQSKQNDQIDVLLAKGVKALAINLVDPAAAGTVIEKARGQNVPVVFFNKEPSRKALDSYDKAYYVGTDSKESGIIQGDLIAKHWAANQGWDLNKDGQIQFVLLKGCPGHPDAEARTTYVIKELNDKGIKTEILELDTAMWDTAQAKDKMDAWLSGPNANKIEVVIANNDRMAMGAVEALKAHNKSSIPVFGVDASPEALALVKSGALAGTVLNDANNQAKATFDLAKNLADGKGAADGTNWKIDNKVVRVPYVGVDKDNLAEFSKK
2. Modified protein 13: 3M-GGBP (SEQ ID NO:3) with substitution N302T (protein) ADTRIGVTIYKYDDNFMSVVRKAIEQDAKAAPDVQLLMNDSQNDQSKQNDQIDVLLAKGVKALAINLVDPAAAGTVIEKARGQNVPVVFFNKEPSRKALDSYDKAYYVGTDSKESGIIQGDLIAKHWAANQGWDLNKDGQIQFVLLKGCPGHPDAEARTTYVIKELNDKGIKTEQLQLDTAMWDTAQAKDKMDAWLSGPNANKIEVVIANNDRMAMGAVEALKAHNKSSIPVFGVDASPEALALVKSGALAGTVLNDANNQAKATFDLAKNLADGKGAADGTNWKIDNKVVRVPYVGVDKDTLAEFSKK
3. Modified protein 11: 3M-GGBP (SEQ ID NO:3) with substitutions K270Y, N271S (protein) ADTRIGVTIYKYDDNFMSVVRKAIEQDAKAAPDVQLLMNDSQNDQSKQNDQIDVLLAKGVKALAINLVDPAAAGTVIEKARGQNVPVVFFNKEPSRKALDSYDKAYYVGTDSKESGIIQGDLIAKHWAANQGWDLNKDGQIQFVLLKGCPGHPDAEARTTYVIKELNDKGIKTEQLQLDTAMWDTAQAKDKMDAWLSGPNANKIEVVIANNDRMAMGAVEALKAHNKSSIPVFGVDASPEALALVKSGALAGTVLNDANNQAKATFDLAYSLADGKGAADGTNWKIDNKVVRVPYVGVDKDNLAEFSKK
4. Modified protein 4: 3M-GGBP (SEQ ID NO:3) with substitution N130D (protein) ADTRIGVTIYKYDDNFMSVVRKAIEQDAKAAPDVQLLMNDSQNDQSKQNDQIDVLLAKGVKALAINLVDPAAAGTVIEKARGQNVPVVFFNKEPSRKALDSYDKAYYVGTDSKESGIIQGDLIAKHWAADQGWDLNKDGQIQFVLLKGCPGHPDAEARTTYVIKELNDKGIKTEQLQLDTAMWDTAQAKDKMDAWLSGPNANKIEVVIANNDRMAMGAVEALKAHNKSSIPVFGVDASPEALALVKSGALAGTVLNDANNQAKATFDLAKNLADGKGAADGTNWKIDNKVVRVPYVGVDKDNLAEFSKK

Resp:
1: 0.3; 2: 0.2; 3: 3.5; 4: 5.2
